Value source: patent US20230115176A1

- Target Or Test System: purified human C5 (Homo sapiens)
- Sequence (P01031 19-1676): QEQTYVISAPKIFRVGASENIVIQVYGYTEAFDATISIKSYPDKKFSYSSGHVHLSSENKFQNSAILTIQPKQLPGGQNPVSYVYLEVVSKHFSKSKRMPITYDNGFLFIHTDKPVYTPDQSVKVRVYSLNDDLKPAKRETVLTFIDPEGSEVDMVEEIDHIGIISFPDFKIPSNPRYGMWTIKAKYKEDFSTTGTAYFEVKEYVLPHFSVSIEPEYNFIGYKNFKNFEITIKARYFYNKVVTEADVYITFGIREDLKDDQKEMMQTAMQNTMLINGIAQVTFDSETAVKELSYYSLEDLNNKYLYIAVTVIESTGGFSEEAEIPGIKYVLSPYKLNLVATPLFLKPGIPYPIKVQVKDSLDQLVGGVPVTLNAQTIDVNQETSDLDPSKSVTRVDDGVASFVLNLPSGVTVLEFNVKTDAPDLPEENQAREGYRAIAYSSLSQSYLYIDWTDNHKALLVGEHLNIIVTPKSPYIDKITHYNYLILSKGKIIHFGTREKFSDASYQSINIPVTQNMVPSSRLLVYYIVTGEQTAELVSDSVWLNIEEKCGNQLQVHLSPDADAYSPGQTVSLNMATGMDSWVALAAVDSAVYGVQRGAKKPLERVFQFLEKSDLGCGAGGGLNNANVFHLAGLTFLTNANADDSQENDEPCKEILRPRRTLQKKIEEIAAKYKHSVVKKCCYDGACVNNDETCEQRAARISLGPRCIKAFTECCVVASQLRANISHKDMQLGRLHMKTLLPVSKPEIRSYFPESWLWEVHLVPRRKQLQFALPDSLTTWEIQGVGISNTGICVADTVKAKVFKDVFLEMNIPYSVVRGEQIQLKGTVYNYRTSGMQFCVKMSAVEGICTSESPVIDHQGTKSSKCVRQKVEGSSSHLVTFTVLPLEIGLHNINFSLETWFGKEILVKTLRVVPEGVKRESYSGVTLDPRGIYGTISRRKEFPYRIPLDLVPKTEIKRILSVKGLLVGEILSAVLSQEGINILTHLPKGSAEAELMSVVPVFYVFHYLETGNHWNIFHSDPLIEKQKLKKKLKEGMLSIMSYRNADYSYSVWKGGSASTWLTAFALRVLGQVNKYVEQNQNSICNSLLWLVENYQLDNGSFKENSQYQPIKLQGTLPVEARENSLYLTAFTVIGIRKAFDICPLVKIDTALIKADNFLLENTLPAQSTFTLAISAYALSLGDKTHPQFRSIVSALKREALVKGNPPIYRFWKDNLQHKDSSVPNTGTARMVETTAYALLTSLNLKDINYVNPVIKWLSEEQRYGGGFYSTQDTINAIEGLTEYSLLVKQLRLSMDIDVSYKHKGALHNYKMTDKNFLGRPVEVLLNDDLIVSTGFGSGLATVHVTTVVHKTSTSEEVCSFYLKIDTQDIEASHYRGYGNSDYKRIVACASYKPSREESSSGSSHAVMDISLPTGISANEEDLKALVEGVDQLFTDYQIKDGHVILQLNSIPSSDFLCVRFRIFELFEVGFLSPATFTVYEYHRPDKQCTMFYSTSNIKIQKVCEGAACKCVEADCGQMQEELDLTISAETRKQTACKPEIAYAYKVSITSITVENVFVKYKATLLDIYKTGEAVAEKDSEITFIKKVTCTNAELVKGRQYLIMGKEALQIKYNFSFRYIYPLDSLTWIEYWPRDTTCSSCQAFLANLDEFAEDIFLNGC
- Test Summary: Red blood cell (RBC) hemolysis assay, optical, absorbance 412 nm (Example 10, Table 19)
- Assay type: cell-based
- Run Parameters: antibody-sensitized sheep erythrocytes, […] human C5 depleted sera, 0.5 nM purified human C5, absorbance 412 nm; read-out: RBC Hemolysis IC50
Readout Name: log10 of IC50 (log10 of the value in nM)
// stored as log10 of IC50 expressed in nM

Reference set, count: 6
- Smiles Representation: "COc1ccc(NC(=O)NCc2ccnc(NCCCN(C)C)c2OC)cc1OCCCC(C)C"
  Target Or Test System: "purified human C5 (Homo sapiens)"
  log10 of IC50: 2.34
- Smiles Representation: "COc1ccc(NC(=O)NCc2cccc3c2ccn3Cc2ccncc2)cc1OCCCC(C)C"
  Target Or Test System: "purified human C5 (Homo sapiens)"
  log10 of IC50: 2.48
- Smiles Representation: "COc1ccc(NC(=O)N[C@@H](CO)c2ccccc2)cc1NCCCC(C)C"
  Target Or Test System: "purified human C5 (Homo sapiens)"
  log10 of IC50: 2.67
- Smiles Representation: "COc1cc(CNC(C)=O)c(NC(=O)NCc2ccnc3[nH]ccc23)cc1OCCCC(C)C"
  Target Or Test System: "purified human C5 (Homo sapiens)"
  log10 of IC50: 2.50
- Smiles Representation: "COc1ccc(NC(=O)NCc2cccc(F)c2O)cc1OCCCC(C)C"
  Target Or Test System: "purified human C5 (Homo sapiens)"
  log10 of IC50: 1.20
- Smiles Representation: "COCc1cccc(CNC(=O)Nc2ccc(OC)c(OCCCC(C)C)c2)c1"
  Target Or Test System: "purified human C5 (Homo sapiens)"
  log10 of IC50: 3.49

## Task So what log10 of IC50 did `COc1ccc(NC(=O)NCc2ccc(N(C)CC(N)=O)cc2)cc1OCCCC(C)C` get with purified human C5 (Homo sapiens)?
## Result 3.43

## Task So what log10 of IC50 did `COc1ccc(NC(=O)N(CCN2CCOCC2)Cc2cccc3c2ccn3CCN2CCOCC2)cc1OCCCC(C)C` get with purified human C5 (Homo sapiens)?
## Result 3.48

* * *

Each entry below carries its recorded pIC50.
- Target Or Test System: Human C5 (Homo sapiens)
- Construct: purchased Complement Technology
- Test Summary: Red blood cell (RBC) hemolysis assay, luminescent (Example 13, Table 22); also: 1.5% C5-depleted human serum
- Assay type: cell-based
- Run Parameters: sheep EA cells, […] C5-depleted human serum, 0.5 nM human C5, 1 hour 37° C., luminescence
# pIC50 = -log10(concentration in molar units)

Reference set, count: 10
- Compound: "CCCCCOc1cc(N2CCCN(Cc3ccc(CC(=O)N4CCCOCC4)cc3OC)C2=O)ccc1OC [CU0100]"
  pIC50: 7.68
- Compound: "COc1ccc(F)cc1CN1CCCN(c2ccc(OC)c(OCC3CC4(CCC4)C3)c2)C1=O [CU0198]"
  pIC50: 7.15
- Compound: "CCCCCOc1cc(N2CCCN(Cc3ccc(Br)cc3OC)C2=O)ccc1OC [CU0153]"
  pIC50: 6.63
- Compound: "CCCCCOc1cc(N2CCN(Cc3cc(F)ccc3Cl)C2=O)ccc1OC [CU0013]"
  pIC50: 6.22
- Compound: "CCCCCOc1cc(N2CCCN(Cc3ccc(CCn4ccnn4)cc3OC)C2=O)ccc1OC [CU0147]"
  pIC50: 7.33
- Compound: "CCCCCOc1cc(N2CCCN(Cc3ccnc4c3ccn4CCN3CCOC3=O)C2=O)ccc1OC [CU0250]"
  pIC50: 6.66
- Compound: "CCCCCOc1cc(N2CCCN(Cc3ccc(CCC(=O)N(CC)CC)cc3OC)C2=O)ccc1OC [CU0008]"
  pIC50: 7.20
- Compound: "CCCCCOc1cc(N2CCCN(Cc3cccc4c3ccn4CC(=O)NC3CNC(=O)C3)C2=O)ccc1OC (centres unmarked) [CU0243]"
  pIC50: 8.26
- Compound: "COc1cc(CC(=O)N2CCOC(CN(C)C)C2)ccc1CN1CCCN(c2ccc(OC)c(OCCCC(C)(F)F)c2)C1=O (centres unmarked) [CU0170]"
  pIC50: 7.70
- Compound: "CCCCCOc1cc(N2CCCN(Cc3cccc4c3ccn4Cc3nncn3C)C2=O)ccc1OC [CU0024]"
  pIC50: 7.89

## Task Recorded pIC50 for CCCCCOc1cc(N2CCCN(Cc3ccnc4c3ccn4CC(=O)N3CCOC(CN(C)C)C3)C2=O)ccc1OC (centres unmarked) [CU0050] , please?
## Result 7.74

## Task Recorded pIC50 for CCCCCOc1cc(N2CCCN(Cc3ccnc4c3ccn4CC(=O)N3CCCOCC3)C2=O)ccc1OC [CU0228] , please?
## Result 7.66

* * *

Each entry below carries its recorded IC50.
- Target Or Test System: purified human C5 (Homo sapiens)
- Test Summary: Red blood cell (RBC) hemolysis assay, optical, absorbance 412 nm (Example 10, Table 19)
- Assay type: cell-based
- Run Parameters: antibody-sensitized sheep erythrocytes, […] human C5 depleted sera, 0.5 nM human C5; read-out: IC50
Express the result in nM but write the number alone.

## Task Recorded IC50 for COc1ccc(NC(=O)NCc2cccc(OC)c2O)cc1OCCCC(C)C [Compound C5INH-0456] , please?
## Result 7

## Task Recorded IC50 for COc1ccc(NC(=O)NC(CO)c2cccc(OC)c2O)cc1OCCCC(C)C (stereo not drawn) [Compound C5INH-0486] , please?
## Result 3

* * *

- Target Or Test System: Human C5 (Homo sapiens, UniProt P01031)
- Construct: purchased Complement Technology
- Sequence (P01031 19-1676): as above
- Test Summary: Red blood cell (RBC) hemolysis assay, luminescent (Example 13, Table 22); also: 1.5% C5-depleted human serum
- Format: cell-based
- Run Parameters: sheep EA cells, […] C5-depleted human serum, 0.5 nM human C5, 1 hour 37° C., luminescence
Each entry below carries its recorded IC50.
Express the result in nM but write the number alone.

Reference set, count: 4
- Compound: "CC/C=C\\COc1cc(N2CCCN(Cc3cc(F)ccc3OC)C2=O)ccc1OC [CU0194]"
  Value Measured: 94.6
- Compound: "CCCCCOc1cc(N2CCCN(Cc3ccc(CC(=O)N4CCCN(C)CC4)cc3OC)C2=O)ccc1OC [CU0104]"
  Value Measured: 23.8
- Compound: "CCCCCOc1cc(N2CCCN(Cc3ccc(CCN4CCOCC4)cc3OC)C2=O)ccc1OC [CU0124]"
  Value Measured: 26
- Compound: "CCCCCOc1cc(N2CCCN(Cc3ccccc3C3CC3)C2=O)ccc1OC [CU0015]"
  Value Measured: 519

// next item, IC50 requested
## Task Recorded IC50 for COc1ccc(F)cc1CN1CCCN(c2ccc(OC)c(OCC3CCCC3)c2)C1=O [CU0168] , please?
## Result 232

* * *

Each entry below carries its recorded log10(IC50).
- Target Or Test System: Human C5 (Homo sapiens)
- Construct: purchased Complement Technology
- Test Summary: Red blood cell (RBC) hemolysis assay, luminescent (Example 13, Table 22); also: 1.5% C5-depleted human serum
- Format: cell-based
- Run Parameters: sheep EA cells, […] C5-depleted human serum, 0.5 nM human C5, 1 hour 37° C., luminescence
// stored as log10 of IC50 expressed in µM

Reference set, count: 7
- Smiles Representation: "COc1ccc(F)cc1CN1CCCN(c2ccc(OC)c(OCCC3CCC3)c2)C1=O"
  Target Or Test System: "Human C5 (Homo sapiens)"
  Readout Name: "log10(IC50)"
  Value Measured: -1.65
- Smiles Representation: "CCCCCOc1cc(N2CCCN(Cc3ccc(F)c(-c4cnn(C5CCN(C)CC5)c4)c3)C2=O)ccc1OC"
  Target Or Test System: "Human C5 (Homo sapiens)"
  Readout Name: "log10(IC50)"
  Value Measured: -1.06
- Smiles Representation: "COc1ccc(N2CCCCN(Cc3ccnc4c3ccn4CC(=O)N(C)C)C2=O)cc1OCCCC(C)C"
  Target Or Test System: "Human C5 (Homo sapiens)"
  Readout Name: "log10(IC50)"
  Value Measured: -0.57
- Smiles Representation: "CCCCCOc1cc(N2CCCN(Cc3cccc4c3cc(C)n4CC(=O)N(C)C)C2=O)ccc1OC"
  Target Or Test System: "Human C5 (Homo sapiens)"
  Readout Name: "log10(IC50)"
  Value Measured: -1.21
- Smiles Representation: "COc1ccc(F)cc1CN1CCCN(c2ccc(OC)c(OCCc3ccccc3)c2)C1=O"
  Target Or Test System: "Human C5 (Homo sapiens)"
  Readout Name: "log10(IC50)"
  Value Measured: -1.35
- Smiles Representation: "CCCCCOc1cc(N2CCCN(Cc3ccnc4c3ccn4CC(=O)N3CCO[C@@H](COC)C3)C2=O)ccc1OC"
  Target Or Test System: "Human C5 (Homo sapiens)"
  Readout Name: "log10(IC50)"
  Value Measured: -1.60
- Smiles Representation: "CCCCCOc1cc(N2CCCN(Cc3cccc4c3ccn4CC3(O)CCN(C)CC3)C2=O)ccc1OC"
  Target Or Test System: "Human C5 (Homo sapiens)"
  Readout Name: "log10(IC50)"
  Value Measured: -1.77

// next item, log10(IC50) requested
## Task So what log10(IC50) did `CCCCCOc1cc(N2CCCN([C@@H](C)c3ccnc4c3ccn4CC(=O)N3CCCOCC3)C2=O)ccc1OC` get with Human C5 (Homo sapiens)?
## Result -1.51
